Assay: P. aeruginosa biofilm formation inhibitors, primary screen, strain PAO1, LB-PBS medium, absorbance 600 nm (AID 1176); also: test concentration not given here
Details: P. aeruginosa PAO1 growth/biofilm, A600, 12 h; higher = more signal
Assay Readout: z-score
Give the figure only, with no unit attached.

// query Dear colleague, I am looking for the recorded z-score of the following compound: COCC1=C2[C@@H](CCc3ccccc3)OB(O)C[C@@H]2[C@@H]2C(=O)N(Cc3ccccc3)C(=O)[C@@H]2C1
// result -0.177

// query Dear colleague, I am looking for the recorded z-score of the following compound: CCCCCN1CC=CC23O[C@@H]4C=CCOC(=O)[C@@H]4[C@H]2C(=O)N(CCCO)[C@@H]3C1=O (some centres not stated)
// result 0.0837

// query Dear colleague, I am looking for the recorded z-score of the following compound: COCCOC(=O)N1C(=O)[C@@]2(c3cc(C#CC4=CCCCC4)ccc31)[C@H](C(=O)N1CCc3cc(OC)c(OC)cc3C1)[C@H]1C(=O)O[C@H](c3ccccc3)[C@H](c3ccccc3)N1[C@@H]2c1ccccc1OCCO
// result 2.41

// query Dear colleague, I am looking for the recorded z-score of the following compound: C=CC(COC(C)=O)NS(=O)(=O)c1ccc(Br)cc1 (configuration not stated)
// result 0.212

// query Dear colleague, I am looking for the recorded z-score of the following compound: CCOC(=O)C[C@H]1[C@H](OC(=O)Cc2ccc3c(c2)OCO3)[C@@H](NC(=O)c2ccc(-c3ccccc3)cc2)c2cc(OCCCO)ccc2N1C(=O)c1ccccc1
// result 0.608

// query Dear colleague, I am looking for the recorded z-score of the following compound: O=C1O[C@H](c2ccccc2)[C@H](c2ccccc2)N2[C@H]1[C@@H](C(=O)O)[C@]1(C(=O)Nc3ccc(C#CC4(O)CCCCCC4)cc31)[C@H]2c1ccc(OCCO)cc1
// result 1.07

// query Dear colleague, I am looking for the recorded z-score of the following compound: COCCOC(=O)N1C(=O)[C@@]2(c3cc(C#CCC(C(=O)OC)C(=O)OC)ccc31)[C@H](c1ccc(O)cc1)N1[C@H](c3ccccc3)[C@H](c3ccccc3)OC(=O)[C@H]1[C@@H]2C(N)=O
// result 1.28

* * *

Assay: inhibitors of hydroxyurea-induced Chk1 phosphorylation, primary screen, imaging, HeLa, phospho-Chk1 antibody, percent positive cells (AID 1186)
Conditions: hydroxyurea-induced phospho-Chk1 immunofluorescence imaging, higher = more signal
Calls of active or inactive are those of the source. The rule behind the calls is not given here.
Assay Readout: z-score

// query Dear colleague, I am looking for the recorded z-score of the following compound: C=C(COC)/C(=C/C[C@H](OC(=O)c1ccncc1)c1cccc(OCCO)c1)c1cc(C(=O)OC)ccc1OC
// result -0.681 (inactive)

// query Dear colleague, I am looking for the recorded z-score of the following compound: C=CCNC(=O)[C@@H]1[C@H]2C(=O)O[C@H](c3ccccc3)[C@H](c3ccccc3)N2[C@H](c2ccc(OCCO)cc2)[C@@]12C(=O)Nc1ccccc12
// result -0.122 (inactive)

// query Dear colleague, I am looking for the recorded z-score of the following compound: [N-]=[N+]=NCc1ccccc1C[C@]1(C(=O)O)N=C(c2ccc(OCCCO)cc2)O[C@H]1c1ccccc1CN=[N+]=[N-]
// result -0.0136 (inactive)

// query Dear colleague, I am looking for the recorded z-score of the following compound: [N-]=[N+]=NCc1ccccc1C[C@]1(C(=O)O)N=C(c2ccc(OCCCO)cc2)O[C@H]1c1ccccc1
// result 0.109 (inactive)

// query Dear colleague, I am looking for the recorded z-score of the following compound: CN(C)C(=O)[C@@]1(CCC(=O)OC(C)(C)C)N=C(c2ccc(OCCCO)cc2)O[C@H]1c1ccccc1
// result 0.196 (inactive)

// query Dear colleague, I am looking for the recorded z-score of the following compound: COC(=O)c1ccc(C23CC2(C(NP(=O)(c2ccccc2)c2ccccc2)c2ccccc2)C3)cc1 (centres undefined)
// result -1.54 (inactive)

// query Dear colleague, I am looking for the recorded z-score of the following compound: NC(=O)NCC#Cc1ccc2c(c1)[C@]1(C(=O)N2)[C@H](C(=O)NC[C@H](O)c2ccccc2)[C@H]2C(=O)O[C@H](c3ccccc3)[C@H](c3ccccc3)N2[C@@H]1c1ccc(O)cc1
// result -0.0342 (inactive)

// query Dear colleague, I am looking for the recorded z-score of the following compound: COc1ccc([Si](C)(C)[C@H]2[C@H](CCn3cc([C@H](O)c4ccccc4)nn3)O[C@@]3(C(=O)N(Cc4cccc(N5CCC5=O)c4)c4ccccc43)[C@@H]2C)cc1
// result -1.17 (inactive)

// query Dear colleague, I am looking for the recorded z-score of the following compound: COCCCNC(=O)[C@@]1(C)c2ccccc2C(=O)N(Cc2cc(C(F)(F)F)cc(C(F)(F)F)c2)[C@H]1c1ccc(CO)cc1
// result -0.385 (inactive)

// query Dear colleague, I am looking for the recorded z-score of the following compound: CC(C)N1C(=O)C[C@@](C(=O)NCc2ccccc2)(c2ccc([N+](=O)[O-])cc2)[C@H]1c1ccc(CO)cc1
// result -0.293 (inactive)

// query Dear colleague, I am looking for the recorded z-score of the following compound: COC(=O)[C@@]1(Cc2ccc(OC)cc2)[C@H]2c3cc(C(=O)N4CCCC4)n(Cc4ccccn4)c3C[C@H]2CN1C(=O)c1ccccc1
// result 0.613 (inactive)

// query Dear colleague, I am looking for the recorded z-score of the following compound: COCC(=C=CC[C@H](O)c1ccc(OCCO)cc1)C[C@H](O)c1cc(Cl)cc(Cl)c1O
// result -0.559 (inactive)

// query Dear colleague, I am looking for the recorded z-score of the following compound: C=CCOC(=O)[C@H]1[C@@H]2C(=O)O[C@@H](c3ccccc3)[C@@H](c3ccccc3)N2[C@@H](c2ccc(OCCOC(=O)[C@@H]3C[C@@H]4C(=O)N5CCC[C@H]5C(=O)N4[C@@H]3c3ccc(O)cc3)cc2)[C@]12C(=O)Nc1ccccc12
// result -0.788 (inactive)

// query Dear colleague, I am looking for the recorded z-score of the following compound: CC(C)(C)N1CC=CC23O[C@@H]4C=CCOC(=O)[C@@H]4[C@H]2C(=O)N(CCCCCO)[C@@H]3C1=O (some centres undefined)
// result 0.241 (inactive)

* * *

Experiment: osmotic lysis modulators in infected erythrocytes, primary screen, PSAC antagonist project, cell-based, P. falciparum Indochina, OD700, 3 h (AID 1156)
Conditions: higher = more signal, called active from +8 up or from −8 down
Assay Readout: z-score
Give the figure only, with no unit attached.

// query Dear colleague, I am looking for the recorded z-score of the following compound: O=C1O[C@H](c2ccccc2)[C@H](c2ccccc2)N2[C@H]1[C@@H](C(=O)O)[C@]1(C(=O)Nc3ccc(C#CC4(O)CCCCCC4)cc31)[C@H]2c1ccc(OCCO)cc1
// result -9.96

// query Dear colleague, I am looking for the recorded z-score of the following compound: O=C1C[C@]2(c3ccc([N+](=O)[O-])cc3)C(=O)N(CC(F)(F)F)c3cc(CO)ccc3[C@H]2N1CC12CC3CC(CC(C3)C1)C2
// result 0.12

// query Dear colleague, I am looking for the recorded z-score of the following compound: O=C1OCCC=C[C@H]2OC34C=CCN(Cc5ccccc5)C(=O)[C@H]3N(CCCCCO)C(=O)[C@@H]4C12 (some centres undefined)
// result 2.12

// query Dear colleague, I am looking for the recorded z-score of the following compound: COc1cc(C(O)C2C=CC3C(=O)N(c4ccccc4)C(=O)C3N2Nc2ccc(C#N)cc2)cc(OC)c1OC (centres undefined)
// result 0.86

// query Dear colleague, I am looking for the recorded z-score of the following compound: CC(C)NC(=O)[C@@]1(Cc2ccccc2I)c2ccccc2C(=O)N(Cc2ccccc2)[C@H]1c1ccc(CO)cc1
// result 1.19

// query Dear colleague, I am looking for the recorded z-score of the following compound: C=C[C@@H](COC(C)=O)N(Cc1ccccc1[N+](=O)[O-])S(=O)(=O)c1ccc(Br)cc1
// result -0.885

// query Dear colleague, I am looking for the recorded z-score of the following compound: C=CC[C@@]1(C(=O)O)N=C(c2ccc(OCCCO)cc2)O[C@@H]1c1ccccc1N=[N+]=[N-]
// result 2.2

// query Dear colleague, I am looking for the recorded z-score of the following compound: COCCOC(=O)N1C(=O)[C@@]2(c3cc(C#CCC(C(=O)OC)C(=O)OC)ccc31)[C@H](C(=O)N1CCN(c3ncccn3)CC1)[C@H]1C(=O)O[C@H](c3ccccc3)[C@H](c3ccccc3)N1[C@@H]2c1ccc(OCCO)cc1
// result -0.153

// query Dear colleague, I am looking for the recorded z-score of the following compound: C=CC[C@@H](OC(=O)Nc1ccc(OC)cc1)c1ccc(O)c2ccccc12
// result -0.335

// query Dear colleague, I am looking for the recorded z-score of the following compound: COC(=O)[C@@]1(Cc2ccc(OC)cc2)[C@H]2c3cc(C(=O)N4CCCC4)n(Cc4ccccn4)c3C[C@H]2CN1C(=O)c1ccccc1
// result 1.1

// query Dear colleague, I am looking for the recorded z-score of the following compound: Cc1cc(C)c(C(O)C2C=CC3C(=O)N(C)C(=O)C3N2Nc2ccccc2)c(C)c1 (centres undefined)
// result -0.168

// query Dear colleague, I am looking for the recorded z-score of the following compound: C=CCC(OC(C)=O)[C@@H]1[C@@H](N(Cc2cccc3ccccc23)C(=O)c2ccc(C)cc2)c2cc(OCCCO)ccc2N1C(=O)Cc1ccc(OC)cc1 (some centres undefined)
// result -0.632

// query Dear colleague, I am looking for the recorded z-score of the following compound: CCOC(=O)C[C@H]1[C@H](OC(=O)c2ccc(-c3ccccc3)cc2)[C@@H](NC(=O)c2ccc(-c3ccccc3)cc2)c2cc(OCCCO)ccc2N1C(=O)Cc1ccc(OC)cc1
// result -0.397

// query Dear colleague, I am looking for the recorded z-score of the following compound: O=C1OCC=C[C@H]2OC34C=CCN(c5ccc6ccccc6c5)C(=O)[C@H]3N(CCCO)C(=O)[C@@H]4[C@@H]12 (some centres undefined)
// result 0.572
